# Tested on: MALME-3M melanoma
# Experiment description: NCI-60 one-dose screen, 48 h
# Measurement context: 10 µM unless noted
About 83,000 compounds went through this panel and 20% of them were active in at least one assay; those are over-represented in the sample as a whole. Calls of active or inactive are those of the source. Rule for the calls: active = growth percent below 10; inactive = the rest.
Would you mind answering with one of these outcomes? true (1) (active), false (0) (inactive)

## Input Hi, sorry to bother you, what did the test record for `CCOc1ccc(Nc2nc(-c3ccc4c(c3)NC(=O)CO4)cs2)cc1` ?
## Output false (0)

## Input # fetch the recorded call for `CCNC(=O)Oc1ccc(/C(=C(\C)c2ccccc2)c2ccc(OCCN(CC)CC)cc2)cc1` here
## Output false (0)

## Input // param item: `N#Cc1c(NC(=O)NCc2ccccc2)sc2c1CCCC2` ; yields the recorded call
## Output false (0)

## Input In this assay, the call recorded for `COc1cc2nc(-c3ccc(C(F)(F)F)cc3)cc(OCCN3CCCCC3)c2cc1OC` was what?
## Output false (0)

## Input Identify the outcome logged in this assay for the molecule shown: `O=C1C=CC(=O)N1c1cccc(Cl)c1`
## Output false (0)

## Input What call does the record list for `O=C(Nc1ncc(Cc2cc(Cl)ccc2Cl)s1)c1cccs1` ?
## Output false (0)

## Input Name the outcome recorded for `O=S(=O)(NCCNc1nccc(-c2c(-c3cccc(O)c3)nc3occn23)n1)c1cccc(F)c1` in the assay.
## Output true (1)

## Input Write down the call the test reported for this molecule. Item: `CC(=O)c1cc2c(N)c(C(=O)Nc3cccc4ccncc34)sc2nc1C`
## Output false (0)

## Input Tell me the recorded outcome of this test for `COc1ccc(C(=O)CC#N)cc1` .
## Output false (0)

## Input Could you check what this test reported for `Nc1ccccc1NC(=O)c1ccc(-n2nc(-c3ccccc3)c3ccccc32)cc1` ?
## Output false (0)

## Input Assay result, entry `CCOC(=O)c1cc(C(=O)c2ccc(OC)c(OC)c2)n2ccc(/C=C/c3cc[n+](CC(=O)c4ccc(OC)c(OC)c4)cc3)cc12` — outcome?
## Output false (0)

## Input Tell me the assay call for COC(=O)C(OC(C)=O)C(OC(C)=O)c1ccc(OC)c(OC)c1 (stereo unspecified) please.
## Output false (0)

## Input What outcome does the record of this test show for `Cn1cc(-c2nc(-c3c[nH]c4c(Cl)nccc34)cs2)c2cc(Br)ccc21` ?
## Output false (0)

## Input What call does the record list for CN1CCC(=C(c2ccccc2)c2ccccc2)C(c2ccccc2)C1 (stereo unspecified) ?
## Output false (0)

## Input Call for entry `c1ccc(-c2cn3c(ccc4ccccc43)n2)cc1` :
## Output false (0)

## Input Give the logged outcome of this assay for the following molecule: `CCc1ccc(-c2cn3ccnc3c(-c3ccc4ncn(Cc5ccccc5)c4c3)n2)cc1`
## Output false (0)

## Input What call does the record list for `N=C(N)c1ccc(OCCCCCCCCCCOc2ccc(C(=N)N)cc2)cc1` ?
## Output true (1)

## Input Look up the recorded call for `COc1ccc(Cc2cnc(NC(=O)c3ccc4c(c3)OCCO4)s2)cc1` in this test.
## Output false (0)

## Input Which outcome was entered for the molecule `CCOC(=O)c1cc(C(=O)c2cc(OC)cc(OC)c2)n2ccc3ccccc3c12` in this test?
## Output false (0)

## Input Test call, this molecule: `CC(C)(C)c1ccc(NS(=O)(=O)c2ccc3nc(NC(=O)c4cnccn4)[nH]c3c2)cc1`
## Output false (0)

## Input Query: recorded result category for `CCCOC(=O)N[C@H]1CCc2cc(OC)c(OC)c(OC)c2-c2ccc(SC)c(=O)cc21` in this test
## Output false (0)

Data provenance is PubChem BioAssay (NCI).
